Biological target: T1, purified GmRLK18-1 LRR domain (6x his-RHG1) (Glycine max)
T1 chain: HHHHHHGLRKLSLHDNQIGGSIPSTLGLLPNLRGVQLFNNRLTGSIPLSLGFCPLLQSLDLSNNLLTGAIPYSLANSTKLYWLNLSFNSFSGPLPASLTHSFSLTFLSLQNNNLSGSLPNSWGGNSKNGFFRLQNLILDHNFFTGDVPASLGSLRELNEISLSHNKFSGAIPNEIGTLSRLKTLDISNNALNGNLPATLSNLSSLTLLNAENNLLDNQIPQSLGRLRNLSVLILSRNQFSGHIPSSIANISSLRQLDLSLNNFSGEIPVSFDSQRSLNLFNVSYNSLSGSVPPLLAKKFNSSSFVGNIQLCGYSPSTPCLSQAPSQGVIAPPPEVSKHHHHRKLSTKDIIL
Assay: fluorescence (luminescence spectrometry) titration of peptide with purified LRR domain, in vitro
Labelling: Kd reported below 40 nM becomes Criterion met; at or above becomes Criterion not met.

// known answers, use as guide
[
  {
    "BINDER": "DLPLAPADRLAPGGPDPQHNVRAPPRKP (modifications not checked) [peptide 2L (GmNIC1, LjCLE-R2 and LjCLE-R1)]",
    "GROUP LABEL": "Criterion not met"
  },
  {
    "BINDER": "RLAPEGPDPHHN (modifications not checked) [peptide 30 (GmCLE30, GmRIC1)]",
    "GROUP LABEL": "Criterion not met"
  },
  {
    "BINDER": "RAELDFNYMSKRRVPNGPDPIHNRRAGNSGR (modifications not checked) [peptide 36L (GmCLE34, AtCLE36, MtCLE36)]",
    "GROUP LABEL": "Criterion not met"
  }
]

Lab note: Kd threshold 40 nM. Does this binder come in strictly under it? AHEVPSGPNPISNR (modifications not checked) [peptide T (GmTDIF, ZeTDIF)]
Criterion met

Lab note: Kd threshold 40 nM. Does this binder come in strictly under it? KGLGLHEELRTVPSGPDPLHHHVNPPRQPR (modifications not checked) [peptide 3L (GmCLE3, AtCLE3, AtClv3 unmodified)]
Criterion not met
